Data provenance: patent US6638921B1

Can you tell me CCIC50 for the items I'm about to list?
Test system: MT-4 cell line
assay-explanation: Cytotoxicity assay in vitro (MTT, virus omitted)
Assay type: cell-based
conditions-used: human, 6 days
Please give a number only; it is taken to be in µM.

// CCIC50 lookup, key: Cc1nc(N=Nc2cccc(C(=O)Nc3ccncc3)c2)c(COP(=O)(O)O)c(C=O)c1O
87

// CCIC50 lookup, key: Cc1nc(N=Nc2cccc(C(=O)O)c2C(=O)O)c(COP(=O)(O)O)c(C=O)c1O
17

// CCIC50 lookup, key: Cc1nc(N=Nc2cccc(C(=O)NCC(C)C)c2)c(COP(=O)(O)O)c(C=O)c1O
90

###

Can you tell me pIC50 for the items I'm about to list?
tgt: HIV-1 integrase (Human immunodeficiency virus type 1 group M subtype B, UniProt P12497)
assay-explanation: HIV-1 integrase inhibition assay in vitro (radiolabeled duplex substrate, U5 end of HIV LTR)
Format: biochemical
conditions-used: IC50, concentration of drug required to reduce the enzyme activity by 50%
Protocol: For the purpose of Table 1, the HIV-1 integrase inhibition assay was carried out following a known procedure (Burke, Jr. T. R. et al., J. Med. Chem. 38, 4171-4178 (1995)). A suitable radiolabeled duplex substrate corresponding to the U5 end of the HIV LTR was used.
// pIC50 here means minus log10 of the molar concentration (mol/L)

// pIC50 lookup, key: Cc1nc(N=Nc2cccc(C(=O)O)c2C)c(COP(=O)(O)O)c(C=O)c1O
5.92

// pIC50 lookup, key: Cc1nc(N=Nc2cccc(C(=O)NCC(C)C)c2)c(COP(=O)(O)O)c(C=O)c1O
5.89

// pIC50 lookup, key: Cc1nc(N=Nc2cccc(S(=O)(=O)N3CCOCC3)c2)c(COP(=O)(O)O)c(C=O)c1O
5.96

// pIC50 lookup, key: Cc1nc(N=Nc2ccc(S(=O)(=O)Nc3ccc(F)cc3)cc2)c(COP(=O)(O)O)c(C=O)c1O
5.82
